This collection of values is drawn from ChEMBL document CHEMBL4483862.

test system: Plasmodium berghei; test: Luciferase/luciferin-expressing antifolate-resistant parasites were used to infect a culture of HepG2 cells that were pre-incubated with compounds. Infected hepatocytes emit light due to the luciferase reaction. Assay results are presented as the percent inhibition of light emission compared to control. […]; type: functional; conditions: sporozoite, HEPG2TOX_HILL_SLOPE 3.9, HEPG2TOX_R_SQUARED 0.655, PBLUC_HILL_SLOPE 12, PBLUC_R_SQUARED 0.445, read-out: LUCIFERASE INFECTION ASSAY - IC50
readout.label: IC50 (µM)
Your answer is read as µM, so omit the unit and give the number.

I am curious: what IC50 value has been reported for "COc1cc(Nc2ccn3ncc(-c4ccc(N)cc4)c3n2)cc(OC)c1OC" ?
3.19
